So I've got a bunch of compounds here, and I need their percent remaining values.
Target: L-aspartate-α-decarboxylase (Escherichia coli)
Construct: expressed in transfected cells; host or cells: E. coli W3110 transformed with pIF309 = strain NS3291 (ATCC 98675), whole cells
Assay: Activity towards D/L-glutamate and D/L-alanine, D/L-aspartate as control (Example 8)
Format: biochemical, E. coli K12
Settings: 8.5 hr; racemate substrate, pH 7.0
Report the figure in % without appending any unit label.

Reported percent remaining for L-aspartate-α-decarboxylase (Escherichia coli), given `N[C@H](CCC(=O)O)C(=O)O` ?
100.27

Reported percent remaining for L-aspartate-α-decarboxylase (Escherichia coli), given `C[C@H](N)C(=O)O` ?
96.946

Reported percent remaining for L-aspartate-α-decarboxylase (Escherichia coli), given `N[C@@H](CCC(=O)O)C(=O)O` ?
97.922

Reported percent remaining for L-aspartate-α-decarboxylase (Escherichia coli), given `N[C@H](CC(=O)O)C(=O)O` ?
100.03

Reported percent remaining for L-aspartate-α-decarboxylase (Escherichia coli), given `N[C@@H](CC(=O)O)C(=O)O` ?
47.221

Reported percent remaining for L-aspartate-α-decarboxylase (Escherichia coli), given `C[C@@H](N)C(=O)O` ?
95.727

====

Target: L-aspartate-α-decarboxylase (Escherichia coli)
Construct: expressed in transfected cells; host or cells: E. coli W3110 transformed with pIF309 = strain NS3291 (ATCC 98675), whole cells
Assay: Activity towards D/L-glutamate and D/L-alanine, D/L-aspartate as control (Example 8)
Assay type: biochemical, E. coli K12
Details: 8.5 hr; racemate substrate, pH 7.0
So I've got a bunch of compounds here, and I need their concentration in supernatant fluid values.
Report the figure in mg/mL without appending any unit label.

Entry `N[C@H](CC(=O)O)C(=O)O` : reported concentration in supernatant fluid = ?
29.900

Entry `C[C@H](N)C(=O)O` : reported concentration in supernatant fluid = ?
18.730

Entry `N[C@@H](CC(=O)O)C(=O)O` : reported concentration in supernatant fluid = ?
12.660

Entry `N[C@@H](CCC(=O)O)C(=O)O` : reported concentration in supernatant fluid = ?
28.740

Entry `N[C@H](CCC(=O)O)C(=O)O` : reported concentration in supernatant fluid = ?
29.520

Entry `C[C@@H](N)C(=O)O` : reported concentration in supernatant fluid = ?
18.370

====

Target: L-aspartate-α-decarboxylase (Escherichia coli, UniProt P0A790)
Construct: expressed in transfected cells; host or cells: E. coli W3110 transformed with pIF309 = strain NS3291 (ATCC 98675), whole cells
Assay: Activity towards D/L-glutamate and D/L-alanine, D/L-aspartate as control (Example 8)
Assay type: biochemical, E. coli K12
Conditions: 3.5 hr; racemate substrate, pH 7.0
measured-endpoint: percent remaining (%)
Report the figure in % without appending any unit label.

Reported percent remaining for L-aspartate-α-decarboxylase (Escherichia coli, UniProt P0A790), given `N[C@H](CCC(=O)O)C(=O)O` ?
98.539

Reported percent remaining for L-aspartate-α-decarboxylase (Escherichia coli, UniProt P0A790), given `C[C@@H](N)C(=O)O` ?
96.873

Reported percent remaining for L-aspartate-α-decarboxylase (Escherichia coli, UniProt P0A790), given `C[C@H](N)C(=O)O` ?
98.137

Reported percent remaining for L-aspartate-α-decarboxylase (Escherichia coli, UniProt P0A790), given `N[C@@H](CCC(=O)O)C(=O)O` ?
96.763

Reported percent remaining for L-aspartate-α-decarboxylase (Escherichia coli, UniProt P0A790), given `N[C@@H](CC(=O)O)C(=O)O` ?
52.406

Reported percent remaining for L-aspartate-α-decarboxylase (Escherichia coli, UniProt P0A790), given `N[C@H](CC(=O)O)C(=O)O` ?
99.866
